experimental-system: HDAC6 (Homo sapiens)
procedure-details: biochemical
condition-info: read-out: HDAC6 IC50; Table 4
IC50 by entry:
Give the number; nM is assumed, so skip it.

Solved cases (2 shown):
# molecule, IC50 (nM)
measured = [
    ("O=C(NO)c1ccc(Cn2c3c(c4ccccc42)CS(=O)(=O)CC3)cc1 [Compound 10a]", 1.9),
    ("O=C(NO)c1ccc(Cn2c3c(c4cc(F)ccc42)CSCC3)cc1", 22),
]

Consider O=C(NO)c1ccc(Cn2c3c(c4cc(F)ccc42)CS(=O)(=O)CC3)cc1 [Compound 10c] . Its measured IC50 is 3.7

* * *

experimental-system: HDAC1 (Homo sapiens)
Sequence (Q13547 whole entry, species assumed): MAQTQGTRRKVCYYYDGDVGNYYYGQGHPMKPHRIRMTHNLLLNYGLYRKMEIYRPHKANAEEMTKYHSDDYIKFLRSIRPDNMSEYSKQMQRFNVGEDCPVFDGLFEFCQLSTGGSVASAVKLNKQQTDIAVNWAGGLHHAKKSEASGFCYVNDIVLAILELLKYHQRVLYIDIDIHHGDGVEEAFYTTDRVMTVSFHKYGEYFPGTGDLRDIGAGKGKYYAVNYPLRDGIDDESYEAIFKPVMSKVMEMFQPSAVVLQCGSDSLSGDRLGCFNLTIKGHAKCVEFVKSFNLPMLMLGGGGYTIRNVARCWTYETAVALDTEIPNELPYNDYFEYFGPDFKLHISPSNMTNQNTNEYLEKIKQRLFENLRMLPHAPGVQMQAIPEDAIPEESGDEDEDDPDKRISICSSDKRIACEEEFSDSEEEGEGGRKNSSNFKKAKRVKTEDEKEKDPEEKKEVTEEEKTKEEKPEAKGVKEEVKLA
procedure-details: HDAC1 inhibitory activity (in vitro pharmacology)
Type: biochemical
condition-info: read-out: % inhibition HDAC1
inhibition at 10 µM by entry:
Give the number; % is assumed, so skip it.

Solved cases (3 shown):
# compound, test-result
rows = [
    ("O=C(NO)c1ccc(Cn2c3c(c4ccccc42)CS(=O)(=O)CC3)cc1 [Compound 10a]", 51),
    ("COc1cc(C(=O)NO)ccc1Cn1c2c(c3ccccc31)CS(=O)(=O)CC2 [Compound 10b]", 2),
    ("O=C(NO)c1ccc(Cn2c3c(c4ccccc42)CSCC3)cc1", 26),
]

Consider O=C(NO)c1ccc(Cn2c3c(c4cc(F)ccc42)CSCC3)cc1 . Its measured inhibition at 10 µM is 17

Consider COc1cc(C(=O)NO)ccc1Cn1c2c(c3cc(F)ccc31)CS(=O)(=O)CC2 [Compound 10d] . Its measured inhibition at 10 µM is 8

Consider O=C(NO)c1ccc(Cn2c3c(c4cc(F)ccc42)CS(=O)(=O)CC3)cc1 [Compound 10c] . Its measured inhibition at 10 µM is 53

* * *

experimental-system: HDAC6 (Homo sapiens, UniProt Q9UBN7)
procedure-details: biochemical
condition-info: read-out: % inhibition HDAC6
inhibition at 10 µM by entry:
Give the number; % is assumed, so skip it.

Solved cases (3 shown):
# molecule, measurement-name, unit-abbreviation, test-result
rows = [
    ("O=C(NO)c1ccc(Cn2c3c(c4cc(F)ccc42)CSCC3)cc1", "inhibition at 10 µM", "%", 99),
    ("COc1cc(C(=O)NO)ccc1Cn1c2c(c3ccccc31)CS(=O)(=O)CC2 [Compound 10b]", "inhibition at 10 µM", "%", 73),
    ("O=C(NO)c1ccc(Cn2c3c(c4ccccc42)CSCC3)cc1", "inhibition at 10 µM", "%", 99),
]

For the molecule O=C(NO)c1ccc(Cn2c3c(c4cc(F)ccc42)CS(=O)(=O)CC3)cc1 [Compound 10c] , the measured inhibition at 10 µM on HDAC6 (Homo sapiens, UniProt Q9UBN7) was 99

For the molecule COc1cc(C(=O)NO)ccc1Cn1c2c(c3cc(F)ccc31)CS(=O)(=O)CC2 [Compound 10d] , the measured inhibition at 10 µM on HDAC6 (Homo sapiens, UniProt Q9UBN7) was 75

For the molecule O=C(NO)c1ccc(Cn2c3c(c4ccccc42)CS(=O)(=O)CC3)cc1 [Compound 10a] , the measured inhibition at 10 µM on HDAC6 (Homo sapiens, UniProt Q9UBN7) was 99

* * *

pIC50 by entry:
experimental-system: HDAC6 (Homo sapiens)
Sequence (Q9UBN7 1-1215): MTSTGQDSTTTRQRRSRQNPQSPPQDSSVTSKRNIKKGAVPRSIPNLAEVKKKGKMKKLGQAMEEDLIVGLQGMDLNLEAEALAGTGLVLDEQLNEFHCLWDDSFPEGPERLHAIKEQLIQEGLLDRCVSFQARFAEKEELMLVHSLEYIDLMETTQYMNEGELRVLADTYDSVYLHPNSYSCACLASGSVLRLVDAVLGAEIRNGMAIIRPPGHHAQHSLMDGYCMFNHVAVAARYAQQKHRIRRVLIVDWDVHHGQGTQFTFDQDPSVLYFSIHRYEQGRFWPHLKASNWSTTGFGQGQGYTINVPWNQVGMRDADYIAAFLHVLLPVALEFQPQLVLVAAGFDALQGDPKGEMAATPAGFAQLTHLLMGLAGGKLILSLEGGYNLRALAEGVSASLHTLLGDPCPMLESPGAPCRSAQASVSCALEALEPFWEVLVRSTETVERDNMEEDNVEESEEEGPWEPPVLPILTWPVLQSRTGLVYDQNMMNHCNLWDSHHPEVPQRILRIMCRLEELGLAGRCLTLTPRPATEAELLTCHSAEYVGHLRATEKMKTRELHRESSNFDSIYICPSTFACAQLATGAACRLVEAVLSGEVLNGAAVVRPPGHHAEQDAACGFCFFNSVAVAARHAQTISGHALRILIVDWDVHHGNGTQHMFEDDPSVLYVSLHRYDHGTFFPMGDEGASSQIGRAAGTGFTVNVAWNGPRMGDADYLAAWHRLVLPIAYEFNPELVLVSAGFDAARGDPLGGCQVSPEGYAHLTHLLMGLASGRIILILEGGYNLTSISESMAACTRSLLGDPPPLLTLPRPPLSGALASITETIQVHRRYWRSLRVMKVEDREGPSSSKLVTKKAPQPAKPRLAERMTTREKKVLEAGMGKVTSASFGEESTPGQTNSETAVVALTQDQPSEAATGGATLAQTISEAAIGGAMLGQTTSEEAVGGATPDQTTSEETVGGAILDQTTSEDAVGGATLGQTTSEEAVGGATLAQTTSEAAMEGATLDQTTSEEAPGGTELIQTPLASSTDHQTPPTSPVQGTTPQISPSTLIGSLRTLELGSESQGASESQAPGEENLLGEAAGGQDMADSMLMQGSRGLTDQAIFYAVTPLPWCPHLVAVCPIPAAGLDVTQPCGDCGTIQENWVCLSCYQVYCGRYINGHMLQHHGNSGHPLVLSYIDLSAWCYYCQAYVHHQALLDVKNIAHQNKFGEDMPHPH
procedure-details: biochemical
condition-info: read-out: IC50 values for HDAC6 inhibition; Table 3 and text
Worth noting: pIC50 values are minus log10 of concentrations stated in mol/L.

# compound, pIC50
records = [
    ("O=C(NO)c1ccc(Cn2c3c(c4ccccc42)CS(=O)(=O)CC3)cc1 [Compound 10a]", 8.72),
    ("O=C(NO)c1ccc(Cn2c3c(c4cc(F)ccc42)CSCC3)cc1 [Compound 7c]", 7.66),
]

Then this compound:
Consider O=C(NO)c1ccc(Cn2c3c(c4cc(F)ccc42)CS(=O)(=O)CC3)cc1 [Compound 10c] . Its measured pIC50 is 8.43
